- target or system: hGLP-1R (Homo sapiens, UniProt P43220)
- Sequence (P43220 24-463): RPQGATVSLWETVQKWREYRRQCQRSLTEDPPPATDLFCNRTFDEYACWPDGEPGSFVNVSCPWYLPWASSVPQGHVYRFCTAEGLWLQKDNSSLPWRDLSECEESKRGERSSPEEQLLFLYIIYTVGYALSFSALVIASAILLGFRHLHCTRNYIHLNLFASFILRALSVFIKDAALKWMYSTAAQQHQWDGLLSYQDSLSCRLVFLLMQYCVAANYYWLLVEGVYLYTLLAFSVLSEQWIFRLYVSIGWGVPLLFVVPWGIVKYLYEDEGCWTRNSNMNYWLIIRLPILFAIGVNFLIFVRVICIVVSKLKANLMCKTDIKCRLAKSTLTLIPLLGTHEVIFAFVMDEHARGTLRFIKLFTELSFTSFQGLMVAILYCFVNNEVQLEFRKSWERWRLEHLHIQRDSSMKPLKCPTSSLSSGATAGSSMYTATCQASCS
- protocol notes: Functional cAMP activity in the presence of 1% HSA
- Assay type: cell-based
- conditions: read-out: cAMP Rel EC50, hGLP-1R
Starred links: 1 amine or outer side, 2 acyl side, 3 side chain; linkers in the order of their positions; H or OH if unused. Non-standard residues stand in square brackets, D forms with d. Groups on a side chain read outwards from the residue. No end group written: not given here. *: point of attachment. C20 diacid = O=C(O)CCCCCCCCCCCCCCCCCCC(=O)*; C18 diacid = O=C(O)CCCCCCCCCCCCCCCCC(=O)*; Phe(4-CN) = N#Cc1ccc(C[C@H](N)C(=O)O)cc1; αMePhe(2-F) = C[C@](N)(Cc1ccccc1F)C(=O)O; γGlu = O=C(O)[C@H](CCC(=O)[*:2])N[*:1]; αMe4Pal = C[C@](N)(Cc1ccncc1)C(=O)O; αMeY = C[C@](N)(Cc1ccc(O)cc1)C(=O)O; 4Pal = N[C@@H](Cc1ccncc1)C(=O)O; αMeL = CC(C)C[C@](C)(N)C(=O)O; αMeS = C[C@](N)(CO)C(=O)O; Orn = NCCC[C@H](N)C(=O)O; AEEA = NCCOCCOCC(=O)O; Aib = CC(C)(N)C(=O)O
Here the recorded log10 EC50 is given for each entry.
Values below are the log10 of the recorded EC50, with nM as the unit.

| substance | target or system | log10 EC50 |
| --- | --- | --- |
| H-Y[Aib]QGTFTSD[4Pal]SQ[αMeL]LDKK([AEEA-γGlu-C18 diacid])AQ[αMe4Pal]AFIEWLIEGGPSSGAPPPSGS-NH2 [Example 830] | hGLP-1R (Homo sapiens, UniProt P43220) | 2.26 |
| H-Y[Aib]QGT[αMePhe(2-F)]TSD[Phe(4-CN)]SILLDKQAQK([AEEA-AEEA-γGlu-C20 diacid])AFIQYLLEGGPSSGEPPPSEG-NH2 [Example 353] | hGLP-1R (Homo sapiens, UniProt P43220) | 2.35 |
| Y[Aib]QGT[αMePhe(2-F)]TSD[4Pal][αMeS]I[αMeL]LD[Orn]K([γGlu-γGlu-C18 diacid])AQ[Aib][Orn]FI[dE][αMeY]LSEGGPSSGEPPPSGSEE-NH2 [Example 569] | hGLP-1R (Homo sapiens, UniProt P43220) | 1.93 |
| H-Y[Aib]QGT[αMePhe(2-F)]TSD[4Pal]SILLDKK([γGlu-γGlu-C18 diacid])AQ[Aib]AFIEYLEEGGPSSGAPPPSGGEE-NH2 [Example 612] | hGLP-1R (Homo sapiens, UniProt P43220) | 2.10 |

Below: the item to evaluate.
Look up log10 EC50 for this substance: H-Y[Aib]QGTFTSD[4Pal]S[Orn][αMeL]LD[Orn]K([γGlu-γGlu-C18 diacid])AQ[αMe4Pal]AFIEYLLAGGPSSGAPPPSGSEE-NH2 [Example 1068]
3.12
